experiment summary: Volume of distribution at steady state in Sprague-Dawley rat
Type: ADME, organism-based
conditions used: in vivo, read-out: Vss
recorded endpoint: Vd (L/kg)

* CC(C)(N)c1ccc(-c2nc(Nc3ccc(CCO)cc3)ncc2Cl)cc1 | 10.7

P: CCN1CCN(CCc2ccc(Nc3ncc(Cl)c(-c4ccc5cc[nH]c5c4)n3)cc2)CC1
Q: Clc1cnc(Nc2ccc(CCN3CCCC3)cc2)nc1-c1ccc2cc[nH]c2c1
Of the two listed items, P and Q , which carries the larger Vd figure? Write the label of whichever entry you select.
Q

====

Test system: HCT-116
experiment summary: Antiproliferative activity against human HCT116 cells
Type: functional, cell-based
recorded endpoint: IC50 (nM)

Examples from the recorded data:
* CN(C)CCc1ccc(Nc2ncc(Cl)c(-c3cccc4[nH]ccc34)n2)cc1 | 84
* Cc1nc(C)c(-c2nc(Nc3ccc(CCN(C)C)cc3)ncc2Cl)s1 | 391
* Clc1cnc(Nc2ccc(CCN3CCCC3)cc2)nc1-c1ccc2cc[nH]c2c1 | 1680
* CC(C)(N)c1ccc(-c2nc(Nc3ccc(CCN4CCCC4)cc3)ncc2Cl)cc1 | 359

a: CCN1CCN(CCc2ccc(Nc3ncc(Cl)c(-c4ccc5cc[nH]c5c4)n3)cc2)CC1
b: CC(C)(N)c1ccc(-c2nc(Nc3cccc(Br)c3)ncc2Cl)cc1
Of the two listed items, a and b , which carries the larger IC50 figure? Write the label of whichever entry you select.
b

I: CN1CCN(CCc2ccc(Nc3ncc(Cl)c(-c4ccc(C(C)(C)N)cc4)n3)cc2)CC1
II: CNCCc1ccc(Nc2ncc(Cl)c(-c3ccc(C(C)(C)N)cc3)n2)cc1
III: CN(C)CCc1ccc(Nc2ncc(Cl)c(-c3cccs3)n2)cc1
IV: CN(C)CCc1ccc(Nc2ncc(Cl)c(-c3n[nH]c4ccccc34)n2)cc1
Arrange items by their IC50 values in increasing order. Give me the labels in the order the question wants.
III, II, I, IV
(III: 228 nM, II: 885 nM, I: 1300 nM, IV: 3760 nM)
